B1: SLC35F2 (parent)
chain: QYLAERYKVNTPMLQSFINYCLLF

# Variants of: B1
# assay.details: protein stability index of a GFP-peptide fusion (GPS, HEK-293T) (PSI 1-6); higher = more stable;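 note: lentivirally expressed fusions sorted by FACS into six bins by GFP to DsRed ratio, PSI derived from sequencing read proportions per bin multiplied by bin number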
# condition.label: c terminus: a fixed tail appended
Would you mind telling me the reported protein stability index of each entry?
A bare number is all that is needed in reply.

Identify measured protein stability index corresponding to `Y2A`
2.29

Determine from records and report protein stability index for `C21A`
3.53

Query protein stability index for `A4I`
2.65

Answer with the recorded protein stability index of `F17K` only.
2.65

Read off the recorded protein stability index for `N19E`
2.22

// fetch protein stability index given entry `V9K`
2.37

Give recorded protein stability index. `Y2Q`
1.97

Check the records and state protein stability index for `Y2W`
2.26

Consider the variant `E5T` . State its measured protein stability index.
2.14

Look up and state reported protein stability index for `N19G`
2.7

# return recorded protein stability index for input `A4H`
1.99

Write down protein stability index measured for item `I18G`
1.92

Give protein stability index for `L23M`
2.7

Note down protein stability index recorded for `M13Q`
2.02

Give recorded protein stability index. `L23D`
2.96

Recall and state the measured protein stability index for `E5D` .
2.88

Quote protein stability index reported for `N19M` please.
2.08

Give a short answer stating reported protein stability index for `P12H` .
3.1

Recall and state the measured protein stability index for `Q1T` .
2.71

Tell me protein stability index reported for `A4Y`
2.38

Return the recorded protein stability index value; entry: `M13W`
1.9

Identify measured protein stability index associated with `F24P`
3.94
